// data source = ChEMBL document CHEMBL1124718

Record: pKi reported on Glutamate receptor ionotropic, NMDA 1 (Rattus norvegicus).
Value format note: pKi is -log10 of concentration (mol/L); just state the number.

// pKi lookup, key: CCC12NC(Cc3ccccc31)c1ccccc12 (centres undefined) 7.92

Proceed to C=CCC12NC(Cc3ccccc31)c1ccccc12 (centres undefined) 7.15

Proceed to NCC12NC(Cc3ccccc31)c1ccccc12 (centres undefined) 6.93

Proceed to c1ccc(COCC23NC(Cc4ccccc42)c2ccccc23)cc1 (centres undefined) 5.00

====

Record: pKi reported on UniProtKB P35439.
Value format note: pKi is -log10 of concentration (mol/L); just state the number.

1. NC(=O)C12NC(Cc3ccccc31)c1ccccc12 (stereo not drawn)	4.95

// pKi lookup, key: N#CCC12NC(Cc3ccccc31)c1ccccc12 (stereo not drawn) 6.01

Proceed to CCCCCCCCCCC12NC(Cc3ccccc31)c1ccccc12 (stereo not drawn) 4.67

Proceed to NCCC12NC(Cc3ccccc31)c1ccccc12 (stereo not drawn) 7.70

Proceed to COCC12NC(Cc3ccccc31)c1ccccc12 (stereo not drawn) 6.52

Proceed to O=C(O)C12NC(Cc3ccccc31)c1ccccc12 (stereo not drawn) 4.49

====

Record: pKi reported on Glutamate receptor ionotropic, NMDA 1 (Rattus norvegicus, UniProt P35439).
Value format note: pKi is -log10 of concentration (mol/L); just state the number.

1. CCCCCCC12NC(Cc3ccccc31)c1ccccc12 (configuration not stated)	6.01

// pKi lookup, key: BrCC12NC(Cc3ccccc31)c1ccccc12 (configuration not stated) 7.48

Proceed to IC12NC(Cc3ccccc31)c1ccccc12 (configuration not stated) 6.37

Proceed to c1ccc2c(c1)CC1NC2c2ccccc21 (configuration not stated) 6.92

Proceed to OCC12NC(Cc3ccccc31)c1ccccc12 (configuration not stated) 7.40

Proceed to CCCC12NC(Cc3ccccc31)c1ccccc12 (configuration not stated) 5.96

Proceed to ClCC12NC(Cc3ccccc31)c1ccccc12 (configuration not stated) 7.92
